Source: paper PMC8766838

tested target: HRasG60A (Homo sapiens, UniProt P01112, G60A)
Sequence (P01112 1-166 G60A): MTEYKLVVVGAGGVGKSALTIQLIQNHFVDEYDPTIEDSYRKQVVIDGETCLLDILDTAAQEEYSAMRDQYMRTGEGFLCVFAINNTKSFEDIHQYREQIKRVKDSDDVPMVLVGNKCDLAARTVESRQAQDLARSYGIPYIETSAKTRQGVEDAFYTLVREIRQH
test name: SPR (steady-state); circular dichroism in support
property: Kd (µM)
// note: answer is a bare numeric in µM

Given the compound O=C1CSC2(CCN(CCCN3c4ccccc4Sc4ccc(Cl)cc43)CC2)N1 , what is its reported Kd? 21.3
